test_description: PSAC antagonists in infected red cells, primary screen, cell-based, P. falciparum Indochina, OD700, 2 h (AID 1155);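 also: lysis reports solute entry through the parasite surface anion channel PSAC; channel blockers reduce lysis of infected cells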
cond: P. falciparum Indochina infected erythrocytes, osmotic lysis OD700; higher = more signal, called active from +8 up or from −8 down
result_type: z-score
Answers are plain numbers.

The compound CO[C@H]1COC(=O)CC=C[C@H](C)COC(=O)[C@@H](C)NC(=O)CC=C[C@@H]1C showed z-score equal to -1.13

The compound C[C@@H](ON=C1[C@H]2CCn3c(=O)n(-c4ccccc4)c(=O)n3[C@H]2[C@H](O)[C@@H]2O[C@H]12)c1cn([C@@H]2COC[C@H]2O)nn1 showed z-score equal to 0.277

The compound CO[C@@H]1COC(=O)CC=C[C@@H](C)[C@@H]2C=C[C@H](O)[C@@H](COC(=O)CC=C[C@H]1C)O2 showed z-score equal to -0.28

The compound CCCCC#C[C@@H]1C=C[C@H](Oc2cc(OC)c(OC)c(OC)c2)[C@@H](COC(=O)OCC)O1 showed z-score equal to 0.673

The compound CCOC(=O)[C@H](CC(C)C)NC(=O)CCC1CC(OC(=O)NCc2cccc3ccccc23)CC2(CCCC(COC(=O)NCc3cccc(C(F)(F)F)c3)O2)O1 (stereo partly drawn) showed z-score equal to -0.0787

The compound CCCCc1nc2c(c3c1C[C@H](C)OC3)CN(CCOc1ccccc1)CC2 showed z-score equal to -0.611

The compound COc1cccc([C@@H]2Oc3ccc(OC)cc3C(=O)[C@H]2O)c1 showed z-score equal to -0.384

New cases:
The compound CC(CCN1CCCc2nc(C)c(C)cc21)=NO[C@@H](C)c1cc(-c2c(C)cc(C)cc2C)no1 showed z-score equal to 0.762

* * *

System: Neuregulin-1 EGF-like domain
test_description: binders of neuregulin-1 EGF-like domain, primary screen, biochemical, small-molecule microarray, 635 nm fluorescence (AID 1081);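 also: binding of the protein to compounds printed on small-molecule microarray slides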
cond: small-molecule microarray binding, higher = more signal
Param threshold (-0.3) applies to composite z-score; output condition met when value >= threshold, condition not met when value < threshold.

Some solved entries appear below for comparison.
Identify whether the reported composite z-score of the following compound is -0.3 or greater: COC(=O)[C@@H]1CC[C@H](C)[C@@H](c2ccc(C)cc2)N1C(=O)c1ccc(C=NOCC[C@@H]2C=C[C@H](OC(C)=O)[C@@H](COC(C)=O)O2)cc1
condition met

Identify whether the reported composite z-score of the following compound is -0.3 or greater: O=C1[C@H]2[C@H]3[C@H](O)[C@H](O)CC(=NOCc4ccccc4)[C@@H]3CC[C@H]2C(=O)N1Cc1ccc2c(c1)OCO2
condition met

Identify whether the reported composite z-score of the following compound is -0.3 or greater: COC(=O)CC=C[C@@H](C)[C@@H](C=NOC[C@H]1O[C@H](c2ccccc2)C=C[C@@H]1Oc1ccc(OC)cc1)OC
condition met

New cases:
Identify whether the reported composite z-score of the following compound is -0.3 or greater: O=c1n(-c2ccccc2)c(=O)n2n1CC[C@@H]1C(=NOCc3ccccc3)[C@H]3O[C@H]3[C@@H](O)[C@@H]12
condition not met

* * *

Exercise: state measured composite z-score for each of the compounds provided.
test_description: small-molecule microarray binders of probe aEGFR, primary screen, biochemical, biotinylated probe, 635/667 nm fluorescence (AID 1097);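 also: probe is a biotinylated anti-EGFR antibody binding compounds printed on slides; score combines fluorescence near 667 nm and signal to noise of each spot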
cond: higher = more signal
Give bare numbers.

Previously resolved entries follow.
The compound CCOC(=O)[C@H](CC(C)C)NC(=O)CCC1CC(OC(=O)NCc2cccc3ccccc23)CC2(CCCC(COC(=O)NCC3CCCCC3)O2)O1 (some centres not stated) showed composite z-score equal to -0.0828

The compound CC(=O)O[C@H]1C2=CO[C@H](C)[C@H]3[C@H]4C5=C([C@H](O)[C@H]6O[C@H]6C5=O)[C@H](OC4C)[C@@]23C(=O)[C@@H]2O[C@@H]21 (some centres not stated) showed composite z-score equal to -0.0047

The compound O=c1n(-c2ccccc2)c(=O)n2n1CC[C@@H]1C(=NOCc3ccccc3)[C@H]3O[C@H]3[C@@H](O)[C@@H]12 showed composite z-score equal to -0.0531

The compound CC(C)=NO[C@H](C)c1cn([C@H](CO)Cc2ccccc2)nn1 showed composite z-score equal to -0.0406

The compound COC(=O)[C@H](C)NC(=O)CCC1CC(OC(=O)NCCc2ccc(F)cc2)CC2(CCCC(COC(=O)NCc3cccc(C(F)(F)F)c3)O2)O1 (some centres not stated) showed composite z-score equal to -0.0647

The compound CON=CC[C@@H]1C=C[C@H](OC(C)=O)[C@@H](COC(C)=O)O1 showed composite z-score equal to -0.184

// next item, composite z-score requested
The compound C=CC[C@@H]1C=C[C@H](ON=C(C)CCC(=O)OC[C@H]2O[C@H](C#Cc3ccccc3)C=C[C@@H]2Oc2ccc(C)cc2)[C@@H](CO)O1 showed composite z-score equal to 0.109

* * *

test_description: S. cerevisiae RM11-1a growth modifiers, primary screen, strain RM11-1a, OD600, basal, 24 h (AID 1177);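 also: cultures grown under basal conditions with no added stressor; test concentration not given here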
cond: OD600, 24 h, higher = more signal, called active from +8 up or from −8 down
Param threshold (0.4) applies to z-score; output Fulfilled when value >= threshold, Not fulfilled when value < threshold.

Identify whether the reported z-score of the following compound is 0.4 or greater: CCOC(=O)[C@H](CC(C)C)NC(=O)CCC1CC(OC(=O)NCCc2ccc(F)cc2)CC2(CCCC(COC(=O)NCCOc3ccccc3)O2)O1 (stereo not given in full)
Fulfilled

New cases:
Identify whether the reported z-score of the following compound is 0.4 or greater: CC(C)CON=C1[C@H]2CCn3c(=O)n(Cc4cc5c(cc4Cl)OCO5)c(=O)n3[C@H]2[C@H](O)[C@@H]2O[C@H]12
Not fulfilled

Identify whether the reported z-score of the following compound is 0.4 or greater: O=C(NN=C1C[C@@H](O)[C@@H](O)[C@@H]2[C@@H]3C(=O)N(C[C@@H]4CCCO4)C(=O)[C@@H]3CC[C@H]12)OCc1ccccc1
Not fulfilled

Identify whether the reported z-score of the following compound is 0.4 or greater: COC(=O)CC=C[C@@H](C)[C@@H](C=NO[C@H](C)c1cn([C@H](CO)Cc2ccccc2)nn1)NS(=O)(=O)c1ccc(C)cc1
Not fulfilled

Identify whether the reported z-score of the following compound is 0.4 or greater: Cn1c(=O)n2n(c1=O)[C@H]1[C@H](O)[C@@H]3O[C@@H]3C(=O)[C@H]1CC2
Fulfilled

Identify whether the reported z-score of the following compound is 0.4 or greater: CCOC(=O)[C@H](CC(C)C)NC(=O)CCC1CC(OC(=O)NCCc2ccc(F)cc2)CC2(CCCC(COC(=O)NCCc3ccccc3OC)O2)O1 (stereo not given in full)
Not fulfilled

Identify whether the reported z-score of the following compound is 0.4 or greater: CC(CCN1CCc2nc(-c3ccccc3)c(-c3ccccc3)cc2C1)=NOC[C@@H](O)[C@H]1O[C@@H]2OC(C)(C)O[C@@H]2[C@H]1O
Not fulfilled

Identify whether the reported z-score of the following compound is 0.4 or greater: CO[C@H]1COC(=O)[C@@H](C)COC(=O)[C@@H](OCc2ccccc2)C=C[C@@H]1C
Fulfilled

Identify whether the reported z-score of the following compound is 0.4 or greater: O=C1[C@H]2[C@H]3[C@H](O)[C@H](O)CC(=NOC[C@@H](O)COCc4ccco4)[C@H]3CC[C@H]2C(=O)N1C[C@@H]1CCCO1
Not fulfilled

Identify whether the reported z-score of the following compound is 0.4 or greater: C[C@@H](c1ccccc1)N1C(=O)[C@H]2[C@H]3[C@H](O)[C@H](O)CC(=NOCc4ccccc4)[C@H]3CC[C@H]2C1=O
Fulfilled

Identify whether the reported z-score of the following compound is 0.4 or greater: C#CCCCON=C1[C@H]2CCn3c(=O)n(-c4ccccc4)c(=O)n3[C@H]2[C@H](O)[C@@H]2O[C@H]12
Not fulfilled

Identify whether the reported z-score of the following compound is 0.4 or greater: COc1cccc([C@@H]2Oc3ccc(OC)cc3C(=O)[C@H]2O)c1
Not fulfilled

* * *

Exercise: state measured composite z-score for each of the compounds provided.
System: wheat germ agglutinin (Triticum aestivum), Alexa647-labelled
test_description: wheat germ agglutinin binders on compound microarrays, profiling panel, artefact control for SMM control-protein annotation, biochemical, small-molecule microarray, 635/667 nm fluorescence (AID 1140);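 also: score merges 667 nm feature emission with signal to noise over triplicate slides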
cond: WGA-A647 binding, 635 nm fluorescence, higher = more signal
One number for each entry.

The compound COc1ccc(O[C@H]2C=C[C@@H](c3ccccc3)O[C@@H]2COC(=O)CCC(C)=NO[C@@H]2O[C@H](COC(C)=O)[C@@H](OC(C)=O)[C@H](OC(C)=O)[C@H]2OC(C)=O)cc1 showed composite z-score equal to 0.262

The compound CC(=O)OC[C@H]1O[C@H](CCON=C2[C@H]3CCn4c(=O)n(-c5ccccc5)c(=O)n4[C@H]3[C@H](O)[C@@H]3O[C@H]23)C=C[C@@H]1OC(C)=O showed composite z-score equal to -0.0229

The compound COc1cccc([C@H]2Oc3ccc(OC)cc3C(=NO[C@@H]3O[C@H](COC(C)=O)[C@@H](OC(C)=O)[C@H](OC(C)=O)[C@H]3OC(C)=O)[C@@H]2O)c1 showed composite z-score equal to -0.639

For every record below, what is its composite z-score?
1. CC(C)(C)N1C(=O)[C@H]2[C@H]3[C@H](O)C=CC(=O)[C@@H]3CC[C@H]2C1=O
2. O=C(C=Cc1ccc2c(c1)OCO2)c1ccc(F)cc1
3. COC(=O)[C@@H]1CC[C@H](C)[C@@H](c2ccc(C)cc2)N1C(=O)c1ccc(C=NOCC[C@@H]2C=C[C@H](OC(C)=O)[C@@H](COC(C)=O)O2)cc1
4. CCOC(=O)[C@H](Cc1ccccc1)NC(=O)OC1CC(CCC2CC(CC)=NO2)OC2(CCCC(COC(=O)NCCC(C)C)O2)C1 (some centres undefined)
5. CCOC(=O)[C@H](CC(C)C)NC(=O)CCC1CC(OC(=O)NCc2cccc3ccccc23)CC2(CCCC(COC(=O)NCCOC)O2)O1 (some centres undefined)
6. COC(=O)[C@H](C)NC(=O)CCC1CC(OC(=O)NCc2ccc3c(c2)OCO3)CC2(CCCC(COC(=O)NCC(c3ccccc3)c3ccccc3)O2)O1 (some centres undefined)

1. 0.0896
2. -0.177
3. 0.175
4. 0.668
5. 0.167
6. 0.31
